Target or system Glycogen phosphorylase, muscle form (Oryctolagus cuniculus); recorded quantity pKi.
Lab note — pKi values are minus log10 of concentrations in M.

{"columns": ["given-smiles", "reported-measurement"],
 "data": [
  ["OC[C@H]1O[C@@H](c2nc(-c3ccc4ccccc4c3)n[nH]2)[C@H](O)[C@@H](O)[C@@H]1O", 6.39]
]}

Consider the record given below.
Give pKi (Glycogen phosphorylase, muscle form (Oryctolagus cuniculus)) of the following compound: OC[C@H]1O[C@@H](c2nnc(-c3ccccc3)[nH]2)[C@H](O)[C@@H](O)[C@@H]1O
5.15

Provenance of the data: ChEMBL document CHEMBL2406926
